- TARGET: ALK2 (Homo sapiens (Human), UniProt Q04771)
- Sequence (Q04771 21-509): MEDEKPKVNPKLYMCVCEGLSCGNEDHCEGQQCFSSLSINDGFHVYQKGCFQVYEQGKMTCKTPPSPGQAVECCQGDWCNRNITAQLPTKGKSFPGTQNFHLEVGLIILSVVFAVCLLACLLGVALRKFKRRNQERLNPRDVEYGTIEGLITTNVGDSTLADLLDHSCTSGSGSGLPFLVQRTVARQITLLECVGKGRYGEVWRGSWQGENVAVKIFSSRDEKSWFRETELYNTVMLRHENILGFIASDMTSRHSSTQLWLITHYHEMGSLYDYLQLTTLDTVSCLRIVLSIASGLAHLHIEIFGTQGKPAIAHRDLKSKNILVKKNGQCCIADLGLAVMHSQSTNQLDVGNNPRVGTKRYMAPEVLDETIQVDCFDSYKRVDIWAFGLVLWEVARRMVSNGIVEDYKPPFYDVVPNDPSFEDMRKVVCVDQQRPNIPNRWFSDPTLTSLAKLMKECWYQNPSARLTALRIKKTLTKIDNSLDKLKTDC
EXPERIMENTAL ENDPOINT: IC50

COc1cc(-n2cnc(Nc3nc(N4CC[C@@H](CO)C4)c4cccn4n3)c2)cc(OC)c1OC [Compound 283b]: < 100 nM
COc1cc(-n2cnc(Nc3nc(N4CCC[C@H]4CO)nc4sc(CN5CCCCC5)cc34)c2)cc(OC)c1OC [Compound 113b]: < 100 nM
COc1cc(-n2cnc(Nc3nc(N4CCC[C@H]4C(N)=O)nc4sc(CN5CCN(C)CC5)cc34)c2)cc(OC)c1OC [Compound 405b]: < 100 nM
COc1cc(-n2cnc(Nc3nc(N4CCC[C@H]4C(N)=O)c4ncsc4n3)c2)cc(OC)c1OC [Compound 196b]: < 100 nM
COc1cc(-n2cnc(Nc3nc(N4CCC[C@H]4CO)nn4c(Br)ccc34)c2)cc(OC)c1OC [Compound 85b]: < 100 nM
COc1cc(-n2cnc(Nc3nc(N4CCC[C@H]4CO)nc4sc(CN5CCN(c6ccccn6)CC5)cc34)c2)cc(OC)c1OC [Compound 108b]: < 100 nM
Cn1cnc(Nc2nc(N3CCCC3c3ccccn3)nc3ccsc23)c1 (stereo not drawn) [Compound 12c]: < 100 nM
COc1cc(-n2cnc(Nc3nc(N4CCC[C@H]4CO)nn4cccc34)c2)cc(C(N)=O)c1O [Compound 268b]: < 100 nM

In: Quick one: IC50 of COc1cc(-n2cnc(Nc3nc(-c4cccc(C=O)c4)nn4cccc34)c2)cc(OC)c1OC [Compound 110a] ?
Out: < 100 nM

In: Reported IC50 for Cn1cnc(Nc2nc(N3CCC[C@H]3c3ccccn3)nn3cccc23)c1 [Compound 18a] : what is it?
Out: < 100 nM

In: # query: IC50 of entry COc1cc(-c2nnc(Nc3nc(N4CCC[C@H]4CO)c4cccn4n3)o2)cc(OC)c1OC [Compound 418b]
Out: > 1000 nM

====

- TARGET: ALK2 (Homo sapiens (Human), UniProt Q04771)
- PROTOCOL TEXT: ALK2 inhibition, LanthaScreen Eu Kinase Binding Assay (ThermoFisher Scientific / Life Technologies)
- ASSAY CONTEXT: read-out: Measured Ki (IC50) Value for Compounds: IC50
pIC50: −log10 of the molar value.
EXPERIMENTAL ENDPOINT: pIC50

# example entries with known answers
COc1cc(-n2cnc(Nc3nc(N4CCC[C@H]4CO)c4cccn4n3)c2)cc(OC)c1OC [Compound 96b]: > 7.00
COc1cc(-n2cnc(Nc3nc(N4CCC[C@@H]4C(N)=O)nc4c3COC4)c2)cc(OC)c1OC [Compound 312a]: > 7.00
c1ccc([C@@H]2CCCN2c2nc(Nc3cn(C4CCC4)cn3)c3cccn3n2)cc1 [Compound 63a]: > 7.00

In: If you can, please state the reported pIC50 value of COc1cc(-n2cnc(Nc3nc(N4CCC[C@H]4C(N)=O)c4cccn4n3)c2)cc(OC)c1OC [Compound 147b] .
Out: < 6.00

In: Recorded pIC50 for OC[C@@H]1CCCN1c1nc(Nc2cn(-c3ccc(F)cc3)cn2)c2ccsc2n1 [Compound 60b] , please?
Out: > 7.00

In: Look up pIC50: COc1cc(-n2cnc(Nc3nc(N4CCC[C@H]4CO)c4ccc(C(=O)N5CCCCC5)n4n3)c2)cc(OC)c1OC [Compound 259d]
Out: > 7.00

In: Bench note: what pIC50 did OC[C@@H]1CCCN1c1nc(Nc2cn(-c3ccc(F)cc3)cn2)c2sccc2n1 [Compound 58b] show?
Out: > 7.00

In: # input compound: COc1cc(-n2cnc(Nc3nc(N4CCC[C@H]4CO)c4cnn(C)c4n3)c2)cc(OC)c1OC [Compound 338b] ; wanted: its pIC50
Out: > 7.00

In: Which pIC50 is listed for OC[C@@H]1CCCN1c1nc(Nc2cn(-c3ccc4c(c3)OCCO4)cn2)c2cccn2n1 [Compound 423e] ?
Out: 6.00 to 7.00

In: I would be grateful if you could share the reported pIC50 for CCCC=Cc1ccc2c(Nc3cn(-c4cc(OC)c(OC)c(OC)c4)cn3)nc(N3CCC[C@H]3CO)nn12 [Compound 79d] .
Out: > 7.00
